Attribution: PubChem BioAssay (NCI)

- Tested on: BT-549 breast
- assay_comment: NCI tumour cell line growth inhibition, 48 h
endpoint_label: TGI

O=P(O)(O)CN1CCNCCN(CP(=O)(O)O)CCNCC1
> 100 µM
CC(C)(CO)N=Cc1ccccc1[O-].CC(C)(CO)N=Cc1ccccc1[O-].[Co+2]
> 63.4 µM
COc1ccc(C(=O)C[C@]2(O)C(=O)Nc3c(Cl)ccc(Cl)c32)cc1
> 72.9 µM
CCCCCCCCCCCCCCCCOCC(Cl)COP(=O)(O)OP(=O)(O)OCC1OC(n2cnc3c(N)ncnc32)C(O)C1O (stereo not drawn)
> 100 µM
CCOC(=O)C1CCCCc2sc(N)c(C#N)c21 (stereo not drawn)
> 100 µM
Nc1ccn([C@@H]2C(F)=C(CO)[C@@H](O)[C@H]2O)c(=O)n1
> 100 µM
CCCn1cnc2c(SCc3ccccc3)nc(N)nc21
> 100 µM
CCN(CC)CCN(C)CCc1ccc(Br)cc1
> 100 µM
Cc1c(C(=O)OCc2ccccc2)[n+](=O)c2cc(F)c(F)cc2n1[O-]
3.62 µM
Cc1ccc(/C=C2\CNC/C(=C\c3ccc(C)cc3)C2=O)cc1
4.28 µM
NS(=O)(=O)c1cc(S(N)(=O)=O)c(NC(=O)N(c2ccccc2)c2ccccc2)c(Cl)c1Cl
36.1 µM
COc1ccc2[nH]c(-c3ccccc3)cc2c1
> 100 µM
O=C(O)C1C(C(=O)O)C2(Cl)C(Cl)=C(Cl)C1(Cl)C2(Cl)Cl.[Cd] (stereo not drawn)
2.74 µM
CCCCCCOP(=O)(OCCCCCC)OC(C(=O)OC)C(F)(F)F (stereo not drawn)
> 100 µM
O=C(Nc1cc(S(=O)(=O)c2ccc(Cl)cc2)ccc1Cl)c1cc(I)cc(I)c1O
39.8 µM
Cc1ccc2c(c1)CC1(C2=O)[C@H](c2ccccc2)C2C(=O)c3ccc(C)cc3C2[C@H]1c1ccccc1 (stereo partly drawn)
> 100 µM
O=c1oc2ccc(F)cc2c(=O)n1-c1ccc(Br)cc1F
2.19 µM
COc1ccc2cc(-c3c(-c4ccncc4)nc(-c4ccc(S(C)=O)cc4C)n3C)ccc2c1 (stereo not drawn)
> 25 µM

###

- System: RPMI-8226 leukemia
- assay_comment: NCI tumour cell line growth inhibition, 48 h
Here, each record is paired with measured GI50 data.
endpoint_label: GI50

Cc1cc(=O)oc2cc(OCCn3c(C)nn(-c4ccc(Cl)cc4)c3=O)ccc12
11000 nM
C=C(CNCCc1ccc(O)cc1)[C@@H]1CC[C@]2(CO)CC[C@]3(C)[C@H](CC[C@@H]4[C@@]5(C)CCC(N)C(C)(C)[C@@H]5CC[C@]43C)[C@@H]12 (stereo not given in full)
1440 nM
Cc1cc(NC(=O)NC(=O)c2ccccc2N(C)C)ccc1Oc1ncc(Br)cn1
517 nM
CCc1cccc(CC)c1/C=C/c1cncc(C(=O)NC)c1
9460 nM
COc1ccc(-c2nc3c(c(=O)n2C(C)=O)C(c2ccc(Cl)cc2)c2sc4c(Cl)cccc4c2O3)cc1 (stereo not given)
529 nM

###

- Test system: DU-145 prostate
- assay_comment: NCI tumour cell line growth inhibition, 48 h; in the data active = GI50 below about 0.43 µM; inactive = the rest
Possible outcomes: 1 (active), 0 (inactive)

O=C(Nc1ccccc1O)c1ccc(CNC(=O)c2ccsc2Nc2ccnc(C(F)(F)F)c2)cc1
0
CC[C@H](C)[C@H](NC(=O)[C@H]1CCCCN1C)C(=O)N(C)[C@H](C[C@@H](OC(C)=O)c1nc(C(=O)N[C@@H](Cc2ccccc2)C[C@H](C)C(=O)OC)cs1)C(C)C
1
COc1ccc(-c2cc(/C=C/C(=O)c3cc(OC)c(OC)c(OC)c3)[nH]n2)cc1OC
0
Cn1cc(CO)c2ccccc21
0
C=CC(=O)Nc1cccc(Nc2nc(Nc3ccc(OCCOC(F)F)cc3)ncc2F)c1
0
Nc1ncnc2c1c(-c1ccc(Oc3ccccc3)cc1)nn2C[C@@H]1SSC[C@@H]1O
0
COc1ccc2cc(-c3c(-c4ccncc4)nc(-c4ccc(S(C)=O)cc4C)n3C)ccc2c1 (stereo not drawn)
0
COc1ccc(NC(=O)c2sc3nc4c(cc3c2N)CCCC4)cc1
0
